Source of measurements: ChEMBL document CHEMBL4270588

# reported pIC50; entries follow
- Test system: MGC-803
- PROCEDURE_TEXT: Antiproliferative activity against human MGC803 cells after 48 hrs by MTT assay
- Assay type: functional, cell-based
- CONDITION_NOTES: MGC-803, 48 h
For clarity, pIC50 is expressed as the negative log10 of concentration in mol/L.

Worked set:
COMPOUND: COc1ccc(CN(C(=O)CSc2nnnn2C)c2cc(OC)c(OC)c(OC)c2)cc1
pIC50: 5.60
//
COMPOUND: COc1ccc(CN(C(=O)CSc2nncs2)c2cc(OC)c(OC)c(OC)c2)cc1
pIC50: 5.94
//
COMPOUND: COc1ccc(CN(C(=O)CCCCSc2nc3ccccc3o2)c2cc(OC)c(OC)c(OC)c2)cc1
pIC50: 5.87
//
COMPOUND: COc1cc2c(c(OC)c1OC)-c1ccc(OC)c(=O)cc1[C@@H](NC(C)=O)CC2 [COLCHICINE]
pIC50: 6.75
//
COMPOUND: COc1ccc(CN(C(=O)CSc2ccccn2)c2cc(OC)c(OC)c(OC)c2)cc1
pIC50: 5.62

Record request: pIC50 value, item `COc1ccc(CN(C(=O)CCSc2nc3ccccc3o2)c2cc(OC)c(OC)c(OC)c2)cc1`
6.19

Which pIC50 is listed for `COc1ccc(CN(C(=O)CSc2nc3ccc(OC)cc3s2)c2cc(OC)c(OC)c(OC)c2)cc1` ?
5.90
